This collection of values is drawn from ChEMBL document CHEMBL1127482.

Species: Homo sapiens
Protocol: Inhibition of 10 uM ADP induced platelet aggregation in human platelet rich citreated plasma (PRP)
Assay type: functional
Where a SMILES comes first, the peptide text is derived from it. Bridges are numbered along the chain shown (N, C = ends).
Measure: IC50 (nM)
Please state the figure in nM; there is no need to write the unit.

Known IC50 results, listed for orientation:
Compound	Unit Spec	Quantitative Result
CC[C@H](C)[C@@H]1NC(=O)[C@@H](NC(C)=O)CSSC[C@@H](C(N)=O)NC(=O)[C@H](CCCN=C(N)N)NC(=O)[C@H](Cc2ccccc2)NC(=O)[C@H](CC(=O)O)NC(=O)CNC(=O)[C@H](CCCN=C(N)N)NC(=O)[C@@H]2CCCN2C1=O (Ac-CIPRGDFRC-NH2; disulfide 1-9)	nM	450
NC(N)=NCCC[C@H](NC(=O)[C@@H]1CSSC2(CCCCC2)[C@H](NC(=O)[C@@H](N)CCCN=C(N)N)C(=O)NCC(=O)N[C@@H](Cc2c[nH]cn2)C(=O)N[C@@H](CCCN=C(N)N)C(=O)NCC(=O)N[C@@H](CC(=O)O)C(=O)N[C@@H](Cc2ccccc2)C(=O)N[C@@H](CCCN=C(N)N)C(=O)N1)C(=O)O	nM	620

Next, consider the following compound.
Task: Item under review: NC(N)=NCCC[C@H](NC(=O)[C@@H]1CSSC2(CCCCC2)[C@H](NC(=O)[C@@H](N)CCCN=C(N)N)C(=O)NCC(=O)N[C@@H](Cc2c[nH]cn2)C(=O)N[C@@H](CCCN=C(N)N)C(=O)NCC(=O)N[C@@H](CC(=O)O)C(=O)N[C@@H](c2ccccc2)C(=O)N[C@@H](CCCN=C(N)N)C(=O)N1)C(=O)O . Reported IC50?
Result: 680

* * *

Assay System: Integrin alpha-V/beta-5 (Homo sapiens, UniProt P06756+P18084)
Sequence (P06756 31-889 limits assumed): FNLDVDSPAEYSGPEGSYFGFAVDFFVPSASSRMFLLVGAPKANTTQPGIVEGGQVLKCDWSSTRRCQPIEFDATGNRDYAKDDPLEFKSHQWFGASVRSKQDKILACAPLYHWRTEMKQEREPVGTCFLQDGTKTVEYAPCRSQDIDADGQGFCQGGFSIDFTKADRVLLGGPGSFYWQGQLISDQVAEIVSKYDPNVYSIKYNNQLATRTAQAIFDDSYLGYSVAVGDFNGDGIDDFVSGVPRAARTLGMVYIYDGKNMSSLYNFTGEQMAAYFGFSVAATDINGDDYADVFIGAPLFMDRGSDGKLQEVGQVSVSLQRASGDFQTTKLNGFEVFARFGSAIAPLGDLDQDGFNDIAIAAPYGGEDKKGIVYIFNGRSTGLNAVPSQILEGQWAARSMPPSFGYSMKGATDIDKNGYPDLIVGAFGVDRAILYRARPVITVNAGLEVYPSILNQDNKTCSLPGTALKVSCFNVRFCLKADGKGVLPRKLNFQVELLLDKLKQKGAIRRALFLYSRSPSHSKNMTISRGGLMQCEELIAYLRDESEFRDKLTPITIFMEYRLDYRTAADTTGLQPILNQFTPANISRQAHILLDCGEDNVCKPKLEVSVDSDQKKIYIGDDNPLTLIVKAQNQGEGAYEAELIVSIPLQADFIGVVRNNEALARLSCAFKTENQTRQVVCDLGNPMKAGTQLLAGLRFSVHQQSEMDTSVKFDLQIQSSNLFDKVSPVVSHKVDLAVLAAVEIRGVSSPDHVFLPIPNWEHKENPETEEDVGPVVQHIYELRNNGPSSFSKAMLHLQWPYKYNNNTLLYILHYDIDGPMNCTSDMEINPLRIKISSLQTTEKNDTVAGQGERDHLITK
Sequence (P06756 891-1048 limits assumed): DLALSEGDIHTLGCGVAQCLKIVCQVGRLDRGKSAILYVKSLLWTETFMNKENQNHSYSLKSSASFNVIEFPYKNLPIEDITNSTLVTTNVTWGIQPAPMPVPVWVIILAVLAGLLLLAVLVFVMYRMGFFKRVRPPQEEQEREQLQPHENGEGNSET
Sequence (P18084 24-799 limits assumed): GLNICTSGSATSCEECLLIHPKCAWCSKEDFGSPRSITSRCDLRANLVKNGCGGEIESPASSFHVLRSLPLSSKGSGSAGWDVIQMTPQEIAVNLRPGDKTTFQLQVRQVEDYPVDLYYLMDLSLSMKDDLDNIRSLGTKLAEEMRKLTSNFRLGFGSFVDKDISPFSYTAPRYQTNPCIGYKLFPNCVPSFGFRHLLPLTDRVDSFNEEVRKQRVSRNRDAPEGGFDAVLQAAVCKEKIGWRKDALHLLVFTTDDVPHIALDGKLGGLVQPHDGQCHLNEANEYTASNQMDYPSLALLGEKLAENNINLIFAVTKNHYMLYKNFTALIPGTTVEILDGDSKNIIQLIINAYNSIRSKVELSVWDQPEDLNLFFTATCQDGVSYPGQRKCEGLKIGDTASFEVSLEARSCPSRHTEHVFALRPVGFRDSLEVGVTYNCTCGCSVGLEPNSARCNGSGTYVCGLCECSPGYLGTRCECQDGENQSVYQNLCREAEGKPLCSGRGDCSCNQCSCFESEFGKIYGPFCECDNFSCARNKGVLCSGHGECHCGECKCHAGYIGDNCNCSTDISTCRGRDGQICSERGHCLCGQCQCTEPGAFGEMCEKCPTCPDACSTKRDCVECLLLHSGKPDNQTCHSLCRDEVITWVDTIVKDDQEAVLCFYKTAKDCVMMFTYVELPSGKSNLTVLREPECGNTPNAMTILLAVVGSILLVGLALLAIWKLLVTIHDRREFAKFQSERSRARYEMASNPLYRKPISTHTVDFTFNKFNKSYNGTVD
Protocol: Binding affinity against integrin alpha V-beta5 in enzyme linked immunosorbent assay (ELISA)
*1 amine or outer side, *2 acyl side, *3 side chain or, on linkers, in order; H or OH if unused. Where a SMILES comes first, the peptide text is derived from it. Bridges are numbered along the chain shown (N, C = ends). X1 = O=C(CC1(S[*:2])CCCCC1)[*:1]
Measure: IC50 (µM)

Compound	IC50 [µM]
CC(C)C[C@@H]1NC(=O)[C@H](CC(=O)O)NC(=O)CNC(=O)[C@H](CCCNC(=N)N)NC(=O)[C@H](Cc2c[nH]cn2)NC(=O)CNC(=O)[C@@H](NC(=O)[C@@H](N)CCCNC(=N)N)C2(CCCC2)SSC[C@@H](C(=O)N[C@@H](CCCNC(=N)N)C(=O)O)NC(=O)[C@H](CCCNC(=N)N)NC1=O	0.34
CC[C@H](C)[C@@H]1NC(=O)[C@@H](NC(C)=O)CSSC[C@@H](C(N)=O)NC(=O)[C@H](CCCN=C(N)N)NC(=O)[C@H](Cc2ccccc2)NC(=O)[C@H](CC(=O)O)NC(=O)CNC(=O)[C@H](CCCN=C(N)N)NC(=O)[C@@H]2CCCN2C1=O (Ac-CIPRGDFRC-NH2; disulfide 1-9)	10
COc1ccc(C[C@@H]2NC(=O)[C@H](CC(=O)O)NC(=O)CNC(=O)[C@H](CCCN=C(N)N)NC(=O)[C@H](Cc3c[nH]cn3)NC(=O)[C@H](CO)NC(=O)[C@@H](NC(=O)[C@@H](N)CCCN=C(N)N)C3(CCCCC3)SSC[C@@H](C(=O)N[C@@H](CCCN=C(N)N)C(=O)O)NC(=O)[C@H](CCCN=C(N)N)NC2=O)cc1	6.6
COc1ccc(C[C@@H]2NC(=O)[C@H](CC(=O)O)NC(=O)CNC(=O)[C@H](CCCN=C(N)N)NC(=O)[C@H](Cc3c[nH]cn3)NC(=O)[C@H](CC(=O)O)NC(=O)[C@@H](NC(=O)[C@@H](N)CCCN=C(N)N)C3(CCCCC3)SSC[C@@H](C(=O)N[C@@H](CCCN=C(N)N)C(=O)O)NC(=O)[C@H](CCCN=C(N)N)NC2=O)cc1	7.2
CC(C)C[C@@H]1NC(=O)[C@H](CC(=O)O)NC(=O)CNC(=O)[C@H](CCCNC(=N)N)NC(=O)[C@H](Cc2c[nH]cn2)NC(=O)CNC(=O)CC2(CCCCC2)SSC[C@@H](C(=O)N[C@@H](C)C(=O)O)NC(=O)[C@H](CCCNC(=N)N)NC1=O (GHRGDLRCA-OH; linker N-8 via X1)	10

a = COc1ccc(C[C@@H]2NC(=O)[C@H](CC(=O)O)NC(=O)CNC(=O)[C@H](CCCNC(=N)N)NC(=O)[C@@H]3CCCN3C(=O)[C@H](CC(N)=O)NC(=O)[C@@H](NC(C)=O)CSSC[C@@H](C(N)=O)NC(=O)[C@H](CC(C)C)NC2=O)cc1
b = COc1ccc(C[C@@H]2NC(=O)[C@H](CC(=O)O)NC(=O)CNC(=O)[C@H](CCCNC(=N)N)NC(=O)[C@@H]3CCCN3C(=O)[C@H](CC(N)=O)NC(=O)[C@@H](NC(C)=O)CSSC[C@@H](C(N)=O)NC(=O)[C@H](CCCNC(N)=O)NC2=O)cc1
Task: Between a and b , whose measured IC50 reads higher? Choose, then provide that item's label.
Result: a
